# System: A431 cells
Catalogue of GI50 values
Observable: GI50

C=CC(=O)N1CCC(Nc2cc3c(Nc4ccc(Oc5ccnc(N6C[C@H](C)C[C@H](C)C6)c5)cc4F)ncnc3cc2OC)CC1 :: ≥ 1000 nM
C=CC(=O)N1CCC(Nc2cc3c(Nc4ccc(Oc5ccn(-c6ccc(OC)nc6)n5)cc4F)ncnc3cc2OC)CC1 :: 100 to 300 nM
C=CC(=O)N1CCC(Nc2cc3c(Nc4ccc(Oc5ccnc(N6CC[C@H](C)C6)c5)cc4F)ncnc3cc2OC)CC1 :: 600 to 1000 nM

* * *

Record type: GI50 measurement. Applies to: A431 cells
Observable: GI50

C=CC(=O)N1CCC(Nc2cc3c(Nc4ccc(Oc5ccnc(N6CCC(C#N)C6)c5)cc4F)ncnc3cc2OC)CC1 (stereo not drawn) :: 600 to 1000 nM
C=CC(=O)N1CCC(Nc2cc3c(Nc4ccc(Oc5ccnc(N6C[C@H]7COC[C@H]7C6)c5)cc4F)ncnc3cc2OC)CC1 :: 300 to 600 nM
C=CC(=O)N1CCC(Nc2cc3c(Nc4ccc(Oc5ccnc(N6CC(C#N)C6)c5)cc4F)ncnc3cc2OC)CC1 :: ≥ 1000 nM

The reported measurements were obtained from patent US20240398805A1.
